Source: ChEMBL document CHEMBL5154839

Target: UniProt:Q07817
Sequence (Q07817 whole entry, the tested form may be a part): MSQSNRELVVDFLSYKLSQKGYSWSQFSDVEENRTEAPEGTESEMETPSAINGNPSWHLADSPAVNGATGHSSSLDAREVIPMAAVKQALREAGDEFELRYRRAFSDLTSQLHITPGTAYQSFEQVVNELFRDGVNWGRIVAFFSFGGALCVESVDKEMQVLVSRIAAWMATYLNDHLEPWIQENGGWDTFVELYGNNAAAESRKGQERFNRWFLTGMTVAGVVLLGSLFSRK
Experiment Notes: Displacement of fluorescein tagged BAK peptide from N-terminal His tagged human BCL-xL (1 to 209 residues) expressed in Escherichia coli BL21 (DE3) assessed as inhibition constant incubated for 1.5 hrs by fluorescence polarization-based competitive binding assay
pKi: −log10 of the molar value.
Value Type: pKi

Query (compound): C=CC(=O)N1CCN(c2c3ccc(-c4cccc(F)c4)cc3nn2Cc2ccccc2)CC1 ; field requested: pKi
< 3.40

---

Target: Apoptosis regulator Bcl-2 (Homo sapiens, UniProt P10415)
Sequence (P10415 whole entry, the tested form may be a part): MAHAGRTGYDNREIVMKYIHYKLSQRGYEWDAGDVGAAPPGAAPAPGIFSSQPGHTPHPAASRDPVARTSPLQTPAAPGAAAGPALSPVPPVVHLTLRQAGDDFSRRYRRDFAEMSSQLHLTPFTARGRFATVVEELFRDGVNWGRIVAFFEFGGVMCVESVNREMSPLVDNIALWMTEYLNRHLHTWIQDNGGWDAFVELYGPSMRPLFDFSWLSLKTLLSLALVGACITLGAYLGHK
Experiment Notes: Displacement of fluorescein tagged BIM peptide from N-terminal His tagged human BCL-2 (1 to 170 residues) expressed in Escherichia coli BL21 (DE3) assessed as inhibition constant incubated for 1.5 hrs by fluorescence polarization-based competitive binding assay
pKi: −log10 of the molar value.
Value Type: pKi

// lookup pKi | system=Apoptosis regulator Bcl-2 (Homo sapiens, UniProt P10415) | key= C=CC(=O)N1CCN(c2c3ccc(-c4cccc(F)c4)cc3nn2Cc2ccccc2)CC1
< 3.40
